tested.system: T1, Recombinant extracellular domain of human FOLR1 (Novoprotein, Cat#: C784) (human, UniProt P15328 25-233, limits assumed)
T1 construct: Bought reagent; also called recombinant FOLR1; immobilized FOLR1 extracellular domain
T1 sequence (P15328 25-233 limits assumed): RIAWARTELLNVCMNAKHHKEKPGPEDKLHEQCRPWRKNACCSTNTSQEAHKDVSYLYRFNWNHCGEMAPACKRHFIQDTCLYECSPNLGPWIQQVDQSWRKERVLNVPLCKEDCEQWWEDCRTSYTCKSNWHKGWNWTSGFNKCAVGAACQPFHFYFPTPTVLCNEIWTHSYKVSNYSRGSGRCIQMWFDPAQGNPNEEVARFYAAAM
assay.method.text: SPR (Biacore 8k), mAb captured on protein A chip, recombinant FOLR1 as analyte, 1:1 model
Please go through the items and note down their pKd.
Answers are plain numbers, as −log10 of the molar value.

These solved cases illustrate the format of a correct answer.
INSERT INTO results (binder, reported_metric, value_measured) VALUES
  ('chimeric anti-FOLR1 mAb F8 (antibody, V domains shown, also called Chimeric mAb F8) VH: EVMLVESGGGLVKPGGSLKLSCVASGFTLSTYAMSWVRQTPEKRLEWVATISGGGGDTYHLDTVKGRFTISRDNAKNTLYLQMSSLRSEDTALYYCARQSHYGSSYYFDNWGQGTTLTVSS VL: DIQMTQSPASLSASVGEIVTIICRVSENIDSYLAWYQQKQGKSPQLLVYAATNLADGVPSRFSGSGSGSQYSLKINSLQSEDVARYYCQHYYTTPPTFGGGTKLDIK', 'pKd', 9.14),
  ('chimeric anti-FOLR1 mAb F20 (antibody, V domains shown, also called Chimeric mAb F20) VH: QVQLQQSGAELVKPGASVQLSCKASGYTFASYYLYWVKQRPGQGLEWIGEINPRSGGTNFNEKFKSKATVTVDKSSSTAYMQLSSLTSEDSAVYYCSRSGRLRGFYTMDYWGQGTSVTVSS VL: NIVMTQSPKSMSVSVGERVTLSCKAGENVGSYVSWYQQKPEQSPELLIYGASNRYTGVPDRFTGSGSATDFTLTISSVQAEDLADYYCGQTYRFLTFGAGTKLELK', 'pKd', 9.00);

// lookup pKd for chimeric anti-FOLR1 mAb F4 (antibody, V domains shown, also called Chimeric mAb F4) VH: EVQLVESGGGLVKPGGSLKLSCAASGFTFSDYGMHWVRQAPEKGLEWVAFISSGSNTIYYADIVKGRFAISRDNAKNTLFLQMASLRSEDTALYYCARLAEWDVAYWGQGTLVTVSA VL: DIVLTQSPATLSVTPGDRISLSCRASQNINNNLHWYQQKSHESPRLLIKFASQSISGIPSRFSGSGSGTDFTLNINGVETEDFGMYFCQQIYSWPQLTFGAGTRLELK
9.26
